test: CCK-8 viability assay; format: cell-based; conditions: human, primary human chondrocytes; 1 µM, 72h; positive control set to 100; read-out: Mean % relative viability
RESULT TYPE: viability at 72 h, 1 µM

# input Given the molecule CC(C)Cc1ccc(C(C)C(=O)O)cc1 (stereo not shown) , what is its reported viability at 72 h, 1 µM?
# output 100%
